# System: E. coli D22
# TEST PROTOCOL: microbe, parasite or virus in culture
# Assay type: cell-based
# TEST CONDITIONS: Escherichia coli, D22, read-out: MIC E. coli D22
Each record here notes measured MIC.

Use these answered entries as a reference point.
- MOLECULE: "CCN1CCN(C(=O)NC(C(=O)N[C@H]2Cc3cccc(C(=O)O)c3OB2O)c2cccc(CP(=O)(O)O)c2)C(=O)C1=O (some centres unmarked) [Example 22]"
  TEST READOUT: "MIC"
  RESULT: "2 to 4 µg/mL"
- MOLECULE: "Cn1cccc(C(=O)N[C@H](C(=O)N[C@H]2Cc3cccc(C(=O)O)c3OB2O)c2ccc(P(=O)(O)O)cc2)c1=O (single isomer, unassigned) [Example 181]"
  TEST READOUT: "MIC"
  RESULT: "> 128 µg/mL"
- MOLECULE: "NCCN1CCN(C(=O)NC(C(=O)N[C@H]2Cc3cccc(C(=O)O)c3OB2O)c2ccc(P(=O)(O)O)cc2)C(=O)C1=O (some centres unmarked) [Example 3]"
  TEST READOUT: "MIC"
  RESULT: "8 to 16 µg/mL"
- MOLECULE: "CS(=O)(=O)N1CCC[C@H]1C(=O)N[C@H](C(=O)N[C@H]1Cc2cccc(C(=O)O)c2OB1O)c1ccc(P(=O)(O)O)cc1 [Example 43]"
  TEST READOUT: "MIC"
  RESULT: "32 to 64 µg/mL"
- MOLECULE: "CCN1CCN(C(=O)N[C@@H](C(=O)N[C@H]2Cc3cccc(C(=O)O)c3OB2O)c2ccc(P(C)(=O)O)cc2)C(=O)C1=O (single isomer, unassigned) [Example 47]"
  TEST READOUT: "MIC"
  RESULT: "2 to 4 µg/mL"
- MOLECULE: "CN1CCCN(C(=O)NC(C(=O)N[C@H]2Cc3cccc(C(=O)O)c3OB2O)c2ccc(P(=O)(O)O)cc2)C1=O (some centres unmarked) [Example 38]"
  TEST READOUT: "MIC"
  RESULT: "8 to 16 µg/mL"
- MOLECULE: "O=C1CC[C@H](C(=O)NC(C(=O)N[C@H]2Cc3cccc(C(=O)O)c3OB2O)c2ccc(P(=O)(O)O)cc2)N1 (some centres unmarked) [Example 53]"
  TEST READOUT: "MIC"
  RESULT: "32 to 64 µg/mL"
- MOLECULE: "O=C(O)c1c(F)ccc2c1OB(O)[C@@H](NC(=O)[C@H](NC(=O)N1CCN(Cc3ccc(O)c(O)c3Cl)C(=O)C1=O)c1ccc(P(=O)(O)O)cc1)C2 (single isomer, unassigned) [Example 160]"
  TEST READOUT: "MIC"
  RESULT: "2 to 4 µg/mL"

Recorded MIC for CCN1CCN(C(=O)NC(C(=O)N[C@H]2Cc3cccc(C(=O)O)c3OB2O)c2ccc(P(=O)(O)O)c(O)c2)C(=O)C1=O (some centres unmarked) [Example 21] , please? 2 to 4 µg/mL

And what about the molecule O=C(N[C@@H](C(=O)N[C@H]1Cc2cccc(C(=O)O)c2OB1O)c1ccc(P(=O)(O)O)cc1)c1cnc2cccn2c1 (single isomer, unassigned) [Example 499] ? 32 to 64 µg/mL

And what about the molecule CCN1CCN(C(=O)NC(C(=O)N[C@H]2Cc3cccc(C(=O)O)c3OB2O)c2ccc(P(=O)(O)O)cc2F)C(=O)C1=O (some centres unmarked) [Example 1] ? 2 to 4 µg/mL

And what about the molecule O=C(O)c1cccc2c1OB(O)[C@@H](NC(=O)[C@H](NC(=O)N1CCCCC1=O)c1ccc(P(=O)(O)O)cc1)C2 [Example 37] ? 8 to 16 µg/mL

And what about the molecule CCN1CCN(C(=O)NC(C(=O)N[C@H]2Cc3cccc(C(=O)O)c3OB2O)c2ccc(P(=O)(O)O)c(F)c2O)C(=O)C1=O (some centres unmarked) [Example 198] ? 8 to 16 µg/mL

And what about the molecule O=C(O)c1cccc2c1OB(O)[C@@H](NC(=O)C(NC(=O)N1CCCC1=O)c1ccc(P(=O)(O)O)cc1)C2 (some centres unmarked) [Example 57] ? 8 to 16 µg/mL

###

# System: A. baumannii CDC-0083
# TEST PROTOCOL: microbe, parasite or virus in culture
# Format: cell-based
# TEST CONDITIONS: Acinetobacter baumannii, CDC0083, read-out: MIC, A. baumannii CDC-0083
Each record here notes measured MIC.

- COMPOUND: "O=C(NCCS(=O)(=O)N1CCN(C(=O)NC(C(=O)N[C@H]2Cc3ccc(F)c(C(=O)O)c3OB2O)c2cc(F)c(O)c(O)c2Cl)C1=O)c1ccncc1 (some centres unmarked) [Example 288]"
  TEST TARGET: "A. baumannii CDC-0083"
  MIC: "< 1 µg/mL"

Recorded MIC for O=C(NCCCN1CCN(C(=O)NC(C(=O)N[C@H]2Cc3ccc(F)c(C(=O)O)c3OB2O)c2cc(F)c(O)c(O)c2Cl)C(=O)C1=O)c1ccc(O)c(F)c1F (some centres unmarked) [Example 306] , please? 2 to 4 µg/mL

And what about the compound O=C(NCCCN1CCN(C(=O)N[C@H](C(=O)N[C@H]2Cc3ccc(F)c(C(=O)O)c3OB2O)c2cc(F)c(O)c(O)c2Cl)C(=O)C1=O)c1cccc(O)c1Cl [Example 302] ? > 128 µg/mL

And what about the compound O=C(NCCCN1CCN(C(=O)NC(C(=O)N[C@H]2Cc3ccc(F)c(C(=O)O)c3OB2O)c2cc(F)c(O)c(O)c2Cl)C1=O)c1nccs1 (some centres unmarked) [Example 257] ? < 1 µg/mL

###

# Tested on: P. aeruginosa CDC-0090
# TEST PROTOCOL: microbe, parasite or virus in culture
# Assay type: cell-based
# TEST CONDITIONS: Pseudomonas aeruginosa, CDC0090, read-out: Minimum inhibitory concentration, P. aeruginosa CDC-0090
TEST READOUT: MIC

Use these answered entries as a reference point.
- COMPOUND: "O=C(O)c1c(F)ccc2c1OB(O)[C@@H](NC(=O)C(NC(=O)N1CCN(C3CCN(C(=O)Nc4ccc(F)c(O)c4F)CC3)C1=O)c1cc(F)c(O)c(O)c1Cl)C2 (some centres unmarked)"
  RESULT: "< 1 µg/mL"
- COMPOUND: "O=C(NCCCN1CCN(C(=O)NC(C(=O)N[C@H]2Cc3ccc(F)c(C(=O)O)c3OB2O)c2cc(F)c(O)c(O)c2Cl)C(=O)C1=O)c1ccc(F)c(O)c1F (some centres unmarked)"
  RESULT: "< 1 µg/mL"
- COMPOUND: "O=C(NCCN1CCN(C(=O)N[C@@H](C(=O)N[C@H]2Cc3ccc(F)c(C(=O)O)c3OB2O)c2cc(F)c(O)c(O)c2Cl)C(=O)C1=O)Nc1ccncc1"
  RESULT: "< 1 µg/mL"
- COMPOUND: "CN(CCN1CCN(C(=O)N[C@@H](C(=O)N[C@H]2Cc3ccc(F)c(C(=O)O)c3OB2O)c2cc(F)c(O)c(O)c2Cl)C(=O)C1=O)Cc1cccnc1"
  RESULT: "< 1 µg/mL"

Recorded MIC for `O=C(O)c1c(F)ccc2c1OB(O)[C@@H](NC(=O)[C@H](NC(=O)N1CCN(C3CCN(C(=O)Nc4cc(F)c(F)c(O)c4F)CC3)C(=O)C1=O)c1cc(F)c(O)c(O)c1Cl)C2` , please? 2 to 4 µg/mL

And what about the compound O=C(O)c1c(F)ccc2c1OB(O)[C@@H](NC(=O)C(NC(=O)N1CCN(C3CCN(C(=O)Nc4c(F)ccc(O)c4F)CC3)C(=O)C1=O)c1cc(F)c(O)c(O)c1Cl)C2 (some centres unmarked) ? 2 to 4 µg/mL

And what about the compound O=C(NCCCN1CCN(C(=O)NC(C(=O)N[C@H]2Cc3ccc(F)c(C(=O)O)c3OB2O)c2cc(F)c(O)c(O)c2Cl)C(=O)C1=O)Nc1ccncc1 (some centres unmarked) ? 2 to 4 µg/mL

And what about the compound `O=C(NCCN1CCN(C(=O)N[C@@H](C(=O)N[C@H]2Cc3ccc(F)c(C(=O)O)c3OB2O)c2cc(F)c(O)c(O)c2Cl)C1=O)Nc1ccc(O)cc1` ? 2 to 4 µg/mL

And what about the compound O=C(O)c1c(F)ccc2c1OB(O)[C@@H](NC(=O)C(NC(=O)N1CCN(C3CCN(C(=O)Nc4cc(O)c(F)cc4Cl)CC3)C(=O)C1=O)c1cc(F)c(O)c(O)c1Cl)C2 (some centres unmarked) ? 2 to 4 µg/mL

And what about the compound O=C(NCCCN1CCN(C(=O)NC(C(=O)N[C@H]2Cc3ccc(F)c(C(=O)O)c3OB2O)c2cc(F)c(O)c(O)c2Cl)C(=O)C1=O)c1cc(O)ccc1Cl (some centres unmarked) ? < 1 µg/mL

And what about the compound O=C(NCCN1CCN(C(=O)NC(C(=O)N[C@H]2Cc3ccc(F)c(C(=O)O)c3OB2O)c2cc(F)c(O)c(O)c2Cl)C(=O)C1=O)c1ccccc1 (some centres unmarked) ? < 1 µg/mL
